Tested on: 922993-354-T-J3-PDC complex spheroids, viability, % test/control
method-summary: Anticancer human tumor 922993-354-T-J3-PDC patient-derived endometrial carcinoma cell line growth inhibition [CLK]; active = viability on the fitted dose curve at most 10% of control; inactive = the rest
experimental-parameters: second compound 1 µM; first compound 0.316 µM
Entry note: the call must match one of active, inactive

See these solved cases before continuing.
molecule | category
CCN1CCN(Cc2ccc(Nc3ncc(F)c(-c4cc(F)c5nc(C)n(C(C)C)c5c4)n3)nc2)CC1 + CN1CCN(c2cc(C(=O)Nc3cc4cc(-c5cnn(C)c5)ccc4cn3)ccn2)CC1 | active
C#Cc1c(F)ccc2cc(O)cc(-c3ncc4c(N5CC6CCC(C5)N6)nc(OCC56CCCN5CC(F)C6)nc4c3F)c12 (stereo not drawn) + CN1CCN(c2cc(C(=O)Nc3cc4cc(-c5cnn(C)c5)ccc4cn3)ccn2)CC1 | active

Now look at this one.
Qu. Recorded test call requested for COc1cccc2c1C(=O)c1c(O)c3c(c(O)c1C2=O)CC(O)(C(=O)CO)CC3OC1CC(N)C(O)C(C)O1 (stereo not drawn) + CNC(=O)c1ccc(Nc2nc(OC3CCCC3)c3c(-c4ccc5nc(C)oc5c4)c[nH]c3n2)c(OC)c1
Ans. inactive

====

Tested on: 922993-354-T-J3-PDC complex spheroids, viability, % test/control
method-summary: Anticancer human tumor 922993-354-T-J3-PDC cell line growth inhibition [CLK];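 also: spheroids exposed to the agents for 7 days before readout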
experimental-parameters: second compound 3.16 µM; first compound 0.000949 µM; hits give low values
Source text: A high-throughput screen of multi-cell type tumor spheroids was designed to identify active combinations of […] and targeted small molecules. Complex spheroids include a stromal component modeled by human endothelial cells (HUVEC) and fibroblasts modeled by human mesenchymal stem cells (MSCs). […] Compounds. […] If the clinical Cmax for an agent had not been determined, the highest concentration tested was 10 microM. […]
assay-readout: viability, T/C

Example cases with answers are listed next.
compound | viability, T/C
C=CC(=O)Nc1cc(Nc2nccc(-c3cn(C)c4ccccc34)n2)c(OC)cc1N(C)CCN(C)C + CNC(=O)c1ccc(Nc2nc(OC3CCCC3)c3c(-c4ccc5nc(C)oc5c4)c[nH]c3n2)c(OC)c1 | 35.8%
CC(C)CC(NC(=O)C(Cc1ccccc1)NC(=O)c1cnccn1)B(O)O (centres undefined) + CNC(=O)c1ccc(Nc2nc(OC3CCCC3)c3c(-c4ccc5nc(C)oc5c4)c[nH]c3n2)c(OC)c1 | 30.9%
CC(C)CC(NC(=O)C(Cc1ccccc1)NC(=O)c1cnccn1)B(O)O (centres undefined) + CN1CCN(c2cc(C(=O)Nc3cc4cc(-c5cnn(C)c5)ccc4cn3)ccn2)CC1 | 0.1%

Sure, the documented viability, T/C for C=CC(=O)Nc1cc(Nc2nccc(-c3cn(C)c4ccccc34)n2)c(OC)cc1N(C)CCN(C)C + CN1CCN(c2cc(C(=O)Nc3cc4cc(-c5cnn(C)c5)ccc4cn3)ccn2)CC1 is 0.11%

====

Here the recorded viability, T/C is given for each entry.
System: 922993-354-T-J3-PDC complex spheroids, viability, % test/control
method-summary: Anticancer human tumor 922993-354-T-J3-PDC cell line growth inhibition [CLK];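 also: spheroids exposed to the agents for 7 days before readout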
experimental-parameters: second compound 10 µM; first compound 0.3 µM; hits give low values
Output spec: scalar in %, unitless text.

Some entries whose results are on file:
compound | system-tested | unit-of-measure | viability, T/C
NC(=O)C(=Cn1cnc(-c2cc(C(F)(F)F)cc(C(F)(F)F)c2)n1)c1cncnc1 + CN1CCN(c2cc(C(=O)Nc3cc4cc(-c5cnn(C)c5)ccc4cn3)ccn2)CC1 | 922993-354-T-J3-PDC complex spheroids, viability, % test/control | % | 0.19
C=CC(=O)Nc1cc(Nc2nccc(-c3cn(C)c4ccccc34)n2)c(OC)cc1N(C)CCN(C)C + CNC(=O)c1ccc(Nc2nc(OC3CCCC3)c3c(-c4ccc5nc(C)oc5c4)c[nH]c3n2)c(OC)c1 | 922993-354-T-J3-PDC complex spheroids, viability, % test/control | % | 32.5
CC(C)CC(NC(=O)C(Cc1ccccc1)NC(=O)c1cnccn1)B(O)O (stereo unspecified) + CNC(=O)c1ccc(Nc2nc(OC3CCCC3)c3c(-c4ccc5nc(C)oc5c4)c[nH]c3n2)c(OC)c1 | 922993-354-T-J3-PDC complex spheroids, viability, % test/control | % | 0.61
C=CC(=O)Nc1cc(Nc2nccc(-c3cn(C)c4ccccc34)n2)c(OC)cc1N(C)CCN(C)C + CN1CCN(c2cc(C(=O)Nc3cc4cc(-c5cnn(C)c5)ccc4cn3)ccn2)CC1 | 922993-354-T-J3-PDC complex spheroids, viability, % test/control | % | 0.62

Value (viability, T/C, 922993-354-T-J3-PDC complex spheroids, viability, % test/control) for record CC(C)CC(NC(=O)C(Cc1ccccc1)NC(=O)c1cnccn1)B(O)O (stereo unspecified) + CN1CCN(c2cc(C(=O)Nc3cc4cc(-c5cnn(C)c5)ccc4cn3)ccn2)CC1 = 2.16

Observed viability, T/C, 922993-354-T-J3-PDC complex spheroids, viability, % test/control, NC(=O)C(=Cn1cnc(-c2cc(C(F)(F)F)cc(C(F)(F)F)c2)n1)c1cncnc1 + CNC(=O)c1ccc(Nc2nc(OC3CCCC3)c3c(-c4ccc5nc(C)oc5c4)c[nH]c3n2)c(OC)c1 : 8.4
